target: HCV NS3/4A protease (Hepatitis C virus genotype 1a, UniProt P27958); assay: HCV NS3/4A protease inhibition
Sequence (P27958 1027-1657 limits assumed): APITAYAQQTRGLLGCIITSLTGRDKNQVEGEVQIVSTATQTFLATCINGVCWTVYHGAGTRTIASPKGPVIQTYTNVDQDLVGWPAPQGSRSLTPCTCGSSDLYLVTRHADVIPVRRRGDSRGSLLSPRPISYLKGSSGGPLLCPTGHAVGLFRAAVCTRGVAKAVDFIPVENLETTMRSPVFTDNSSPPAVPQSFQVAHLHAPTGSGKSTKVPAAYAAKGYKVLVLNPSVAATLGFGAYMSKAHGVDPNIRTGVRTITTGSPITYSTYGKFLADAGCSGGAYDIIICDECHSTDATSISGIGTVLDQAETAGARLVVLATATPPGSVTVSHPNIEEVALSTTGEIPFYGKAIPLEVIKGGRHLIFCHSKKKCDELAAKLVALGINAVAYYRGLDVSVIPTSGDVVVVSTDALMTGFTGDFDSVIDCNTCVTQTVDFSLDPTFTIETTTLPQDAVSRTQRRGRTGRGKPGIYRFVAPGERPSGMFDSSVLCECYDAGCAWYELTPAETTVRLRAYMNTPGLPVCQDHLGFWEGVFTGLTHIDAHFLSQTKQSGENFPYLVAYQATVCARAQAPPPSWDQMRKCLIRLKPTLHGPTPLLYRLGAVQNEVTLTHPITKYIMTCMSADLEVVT
Sequence (P27958 1658-1711 partner limits assumed): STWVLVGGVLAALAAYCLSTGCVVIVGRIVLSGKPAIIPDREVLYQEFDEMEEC
OBSERVATION_TYPE: IC50 (µM)
The reply should contain only the number, in µM.

// query Fill in reported IC50 for this entry: CCCCCCCCCCCC1=C(O)C(=O)C=C(O)C1=O
// result 10.2
